MIC values, listed per item
System: Streptococcus pneumoniae
Experiment: In vitro minimum inhibitory concentration against Streptococcus pneumoniae UC41
Format: functional
Give the number first and the unit second.

CCN(CC)CCCNC(=O)[C@H]1NC(=O)[C@H]2NC(=O)[C@H](NC(=O)[C@@H]3NC(=O)[C@H]4NC(=O)[C@@H](Cc5ccc(c(Cl)c5)Oc5cc3cc(c5O)Oc3ccc(cc3Cl)[C@H]2O[C@@H]2O[C@@H](CO)[C@@H](O)[C@H](O)[C@@H]2NC(C)=O)NC(=O)[C@H](N)c2ccc(O)c(c2)Oc2cc(O)cc4c2)c2ccc(O)c(c2)-c2c(O[C@H]3O[C@H](CO)[C@@H](O)[C@@H](O)[C@@H]3O)cc(O)cc21: 0.5 µg/mL
CC(=O)NC1C(O[C@@H]2c3ccc(c(Cl)c3)Oc3cc4cc(c3O)Oc3ccc(cc3Cl)C[C@H]3NC(=O)[C@H](N)c5ccc(O)c(c5)Oc5cc(O)cc(c5)[C@H](NC3=O)C(=O)N[C@H]4C(=O)N[C@H]3C(=O)N[C@@H]2C(=O)N[C@H](C(=O)NCCCN(C)C)c2cc(O)cc(O)c2-c2cc3ccc2O)OC(CO)C(O)C1O (stereo partly drawn): 0.25 µg/mL

Note: attention shifts to another entry.
QUERY: For the molecule shown here, CC(=O)NC1C(O[C@@H]2c3ccc(c(Cl)c3)Oc3cc4cc(c3O)Oc3ccc(cc3Cl)C[C@H]3NC(=O)[C@H](N)c5ccc(O)c(c5)Oc5cc(O)cc(c5)[C@H](NC3=O)C(=O)N[C@H]4C(=O)N[C@H]3C(=O)N[C@@H]2C(=O)N[C@H](C(=O)NCCN2CCCC2)c2cc(O)cc(O)c2-c2cc3ccc2O)OC(CO)C(O)C1O (stereo partly drawn) , give the reported MIC.
RESULT: 0.25 µg/mL

* * *

MIC values, listed per item
Test system: Streptococcus pneumoniae
Assay: In vitro minimum inhibitory concentration against Streptococcus pneumoniae UC41
Type: functional
Please respond with the number in µg/mL and leave the unit unwritten.

In the examples that follow, each entry is paired with its recorded MIC.
N[C@H]1C(=O)N[C@@H]2Cc3ccc(c(Cl)c3)Oc3cc4cc(c3O)Oc3ccc(cc3Cl)[C@@H](O)[C@@H]3NC(=O)[C@H](NC(=O)[C@@H]4NC(=O)[C@@H](NC2=O)c2cc(O)cc(c2)Oc2cc1ccc2O)c1ccc(O)c(c1)-c1c(O)cc(O)cc1[C@@H](C(=O)N1CCOCC1)NC3=O: 0.12
CCN(CC)CCCNC(=O)[C@H]1NC(=O)[C@H]2NC(=O)[C@H](NC(=O)[C@@H]3NC(=O)[C@H]4NC(=O)[C@@H](Cc5ccc(c(Cl)c5)Oc5cc3cc(c5O)Oc3ccc(cc3Cl)[C@H]2O)NC(=O)[C@H](N)c2ccc(O)c(c2)Oc2cc(O)cc4c2)c2ccc(O)c(c2)-c2c(O)cc(O)cc21: 0.12
CCN1CCCC1CNC(=O)[C@H]1NC(=O)[C@H]2NC(=O)[C@H](NC(=O)[C@@H]3NC(=O)[C@H]4NC(=O)[C@@H](Cc5ccc(c(Cl)c5)Oc5cc3cc(c5O[C@@H]3O[C@@H](CO)[C@@H](O)[C@H](O)[C@@H]3NC(=O)CCCCCCC(C)C)Oc3ccc(cc3Cl)[C@H]2O[C@@H]2O[C@@H](CO)[C@@H](O)[C@H](O)[C@@H]2NC(C)=O)NC(=O)[C@H](N)c2ccc(O)c(c2)Oc2cc(O)cc4c2)c2ccc(O)c(c2)-c2c(O[C@H]3O[C@H](CO)[C@@H](O)[C@@H](O)[C@@H]3O)cc(O)cc21 (some centres undefined): 0.06
CC(=O)N[C@@H]1[C@H](O[C@@H]2c3ccc(c(Cl)c3)Oc3cc4cc(c3O[C@@H]3O[C@@H](CO)[C@@H](O)[C@H](O)[C@@H]3NC(=O)CCCCCCC(C)C)Oc3ccc(cc3Cl)C[C@H]3NC(=O)[C@H](N)c5ccc(O)c(c5)Oc5cc(O)cc(c5)[C@H](NC3=O)C(=O)N[C@H]4C(=O)N[C@H]3C(=O)N[C@@H]2C(=O)N[C@H](C(=O)NC2CN4CCC2CC4)c2cc(O)cc(O[C@H]4O[C@H](CO)[C@@H](O)[C@@H](O)[C@@H]4O)c2-c2cc3ccc2O)O[C@@H](CO)[C@@H](O)[C@@H]1O (some centres undefined): 0.06

QUERY: For the molecule shown here, CN(C)CCCCCCCNC(=O)[C@H]1NC(=O)[C@H]2NC(=O)[C@H](NC(=O)[C@@H]3NC(=O)[C@H]4NC(=O)[C@@H](Cc5ccc(c(Cl)c5)Oc5cc3cc(c5O)Oc3ccc(cc3Cl)[C@H]2O)NC(=O)[C@H](N)c2ccc(O)c(c2)Oc2cc(O)cc4c2)c2ccc(O)c(c2)-c2c(O)cc(O)cc21 , give the reported MIC.
RESULT: 0.12

QUERY: Could you do the same for CC(=O)N[C@@H]1[C@H](O[C@@H]2c3ccc(c(Cl)c3)Oc3cc4cc(c3O[C@@H]3O[C@@H](CO)[C@@H](O)[C@H](O)[C@@H]3NC(=O)CCCCCCC(C)C)Oc3ccc(cc3Cl)C[C@H]3NC(=O)[C@H](N)c5ccc(O)c(c5)Oc5cc(O)cc(c5)[C@H](NC3=O)C(=O)N[C@H]4C(=O)N[C@H]3C(=O)N[C@@H]2C(=O)N[C@H](C(=O)N(C)C)c2cc(O)cc(O[C@H]4O[C@H](CO)[C@@H](O)[C@@H](O)[C@@H]4O)c2-c2cc3ccc2O)O[C@@H](CO)[C@@H](O)[C@@H]1O , please?
RESULT: 0.06

QUERY: Could you do the same for CC(=O)N[C@@H]1[C@H](O[C@@H]2c3ccc(c(Cl)c3)Oc3cc4cc(c3O[C@@H]3O[C@@H](CO)[C@@H](O)[C@H](O)[C@@H]3NC(=O)CCCCCCC(C)C)Oc3ccc(cc3Cl)C[C@H]3NC(=O)[C@H](N)c5ccc(O)c(c5)Oc5cc(O)cc(c5)[C@H](NC3=O)C(=O)N[C@H]4C(=O)N[C@H]3C(=O)N[C@@H]2C(=O)N[C@H](C(=O)NC2CCN(Cc4ccccc4)CC2)c2cc(O)cc(O[C@H]4O[C@H](CO)[C@@H](O)[C@@H](O)[C@@H]4O)c2-c2cc3ccc2O)O[C@@H](CO)[C@@H](O)[C@@H]1O , please?
RESULT: 0.06

QUERY: Could you do the same for CCCCC/C=C/CCC(=O)N[C@@H]1[C@H](Oc2c3cc4cc2Oc2ccc(cc2Cl)[C@@H](O[C@@H]2O[C@@H](CO)[C@@H](O)[C@H](O)[C@@H]2NC(C)=O)[C@@H]2NC(=O)[C@H](NC(=O)[C@@H]4NC(=O)[C@H]4NC(=O)[C@@H](Cc5ccc(c(Cl)c5)O3)NC(=O)[C@H](N)c3ccc(O)c(c3)Oc3cc(O)cc4c3)c3ccc(O)c(c3)-c3c(O[C@H]4O[C@H](CO)[C@@H](O)[C@@H](O)[C@@H]4O)cc(O)cc3[C@@H](C(=O)NC(CCC(=O)O)C(=O)O)NC2=O)O[C@@H](CO)[C@@H](O)[C@@H]1O (some centres undefined) , please?
RESULT: 0.12

QUERY: Could you do the same for CN1CCN(C(=O)[C@H]2NC(=O)[C@H]3NC(=O)[C@H](NC(=O)[C@@H]4NC(=O)[C@H]5NC(=O)[C@@H](Cc6ccc(c(Cl)c6)Oc6cc4cc(c6O)Oc4ccc(cc4Cl)[C@H]3O)NC(=O)[C@H](N)c3ccc(O)c(c3)Oc3cc(O)cc5c3)c3ccc(O)c(c3)-c3c(O)cc(O)cc32)CC1 , please?
RESULT: 0.12

* * *

Tested on: Enterococcus faecalis
Test: In vitro minimum inhibitory concentration against Streptococcus faecalis ATCC 7080
Format: functional
Reported Endpoint: MIC

In the examples that follow, each entry is paired with its recorded MIC.
CCNCCCNC(=O)[C@H]1NC(=O)[C@H]2NC(=O)[C@H](NC(=O)[C@@H]3NC(=O)[C@H]4NC(=O)[C@@H](Cc5ccc(c(Cl)c5)Oc5cc3cc(c5O[C@@H]3O[C@@H](CO)[C@@H](O)[C@H](O)[C@@H]3NC(=O)CCCCCCC(C)C)Oc3ccc(cc3Cl)[C@H]2O[C@@H]2O[C@@H](CO)[C@@H](O)[C@H](O)[C@@H]2NC(C)=O)NC(=O)[C@H](N)c2ccc(O)c(c2)Oc2cc(O)cc4c2)c2ccc(O)c(c2)-c2c(O[C@H]3O[C@H](CO)[C@@H](O)[C@@H](O)[C@@H]3O)cc(O)cc21: 0.12 µg/mL
CC(=O)N[C@@H]1[C@H](O[C@@H]2c3ccc(c(Cl)c3)Oc3cc4cc(c3O)Oc3ccc(cc3Cl)C[C@H]3NC(=O)[C@H](N)c5ccc(O)c(c5)Oc5cc(O)cc(c5)[C@H](NC3=O)C(=O)N[C@H]4C(=O)N[C@H]3C(=O)N[C@@H]2C(=O)N[C@H](C(=O)N2CCSCC2)c2cc(O)cc(O[C@H]4O[C@H](CO)[C@@H](O)[C@@H](O)[C@@H]4O)c2-c2cc3ccc2O)O[C@@H](CO)[C@@H](O)[C@@H]1O: 2 µg/mL
CCCCC/C=C/CCC(=O)N[C@@H]1[C@H](Oc2c3cc4cc2Oc2ccc(cc2Cl)[C@@H](O[C@@H]2O[C@@H](CO)[C@@H](O)[C@H](O)[C@@H]2NC(C)=O)[C@@H]2NC(=O)[C@H](NC(=O)[C@@H]4NC(=O)[C@H]4NC(=O)[C@@H](Cc5ccc(c(Cl)c5)O3)NC(=O)[C@H](N)c3ccc(O)c(c3)Oc3cc(O)cc4c3)c3ccc(O)c(c3)-c3c(O[C@H]4O[C@H](CO)[C@@H](O)[C@@H](O)[C@@H]4O)cc(O)cc3[C@@H](C(=O)O)NC2=O)O[C@@H](CO)[C@@H](O)[C@@H]1O: 0.12 µg/mL

QUERY: For the compound shown here, N[C@H]1C(=O)N[C@@H]2Cc3ccc(c(Cl)c3)Oc3cc4cc(c3O)Oc3ccc(cc3Cl)[C@@H](O)[C@@H]3NC(=O)[C@H](NC(=O)[C@@H]4NC(=O)[C@@H](NC2=O)c2cc(O)cc(c2)Oc2cc1ccc2O)c1ccc(O)c(c1)-c1c(O)cc(O)cc1[C@@H](C(=O)N1CCOCC1)NC3=O , give the reported MIC.
RESULT: 0.12 µg/mL

QUERY: Could you do the same for CN1CCN(C(=O)[C@H]2NC(=O)[C@H]3NC(=O)[C@H](NC(=O)[C@@H]4NC(=O)[C@H]5NC(=O)[C@@H](Cc6ccc(c(Cl)c6)Oc6cc4cc(c6O)Oc4ccc(cc4Cl)[C@H]3O)NC(=O)[C@H](N)c3ccc(O)c(c3)Oc3cc(O)cc5c3)c3ccc(O)c(c3)-c3c(O)cc(O)cc32)CC1 , please?
RESULT: 0.12 µg/mL
